Please provide measured LC50 for the entries that follow.
run_description: Toxicity against Artemia salina
Type: organism-based
stated_conditions: in vivo, read-out: LD50 (the source's name)
Give bare numbers, in µg/mL.

[[record]]
smiles_entry = "CC(=O)O[C@H]1[C@H](OC(=O)C[C@@](C)(O)CC(=O)O)C[C@]2(C)C3=C(CC[C@H]2C1(C)C)[C@]1(C)CC[C@H]([C@H]2CC[C@H](C(C)(C)O)O[C@@H]2O)[C@@]1(C)[C@@H](O)C3"
readout_number = 96.5

[[record]]
smiles_entry = "CC(=O)O[C@H]1O[C@@H](C(C)(C)O)CC[C@@H]1[C@H]1CC[C@@]2(C)C3=C(CC[C@]12C)[C@@]1(C)C[C@@H](OC(=O)C[C@@](C)(O)CC(=O)O)[C@H](OC(C)=O)C(C)(C)[C@@H]1CC3"
readout_number = 19.7


For `CC(=O)O[C@H]1CC2=C(CC[C@H]3C(C)(C)[C@@H](OC(C)=O)[C@H](OC(=O)C[C@@](C)(O)CC(=O)O)C[C@]23C)[C@]2(C)CC[C@H]([C@H]3CC[C@H](C(C)(C)O)O[C@@H]3O)[C@@]12C` , what is its reported LC50?
386
